target: T1, human CXCR4-enriched lipoparticles (LEV101, Integral Molecular) (human, UniProt P61073 1-352); assay: biosensor kinetic titration, Fab over captured human CXCR4 lipoparticles
T1 construct: Bought reagent; CXCR4 held in lipoparticles captured by biotinylated WGA on an SA chip; also called Lipoparticles containing CXCR4 proteins
T1 sequence (P61073 whole entry): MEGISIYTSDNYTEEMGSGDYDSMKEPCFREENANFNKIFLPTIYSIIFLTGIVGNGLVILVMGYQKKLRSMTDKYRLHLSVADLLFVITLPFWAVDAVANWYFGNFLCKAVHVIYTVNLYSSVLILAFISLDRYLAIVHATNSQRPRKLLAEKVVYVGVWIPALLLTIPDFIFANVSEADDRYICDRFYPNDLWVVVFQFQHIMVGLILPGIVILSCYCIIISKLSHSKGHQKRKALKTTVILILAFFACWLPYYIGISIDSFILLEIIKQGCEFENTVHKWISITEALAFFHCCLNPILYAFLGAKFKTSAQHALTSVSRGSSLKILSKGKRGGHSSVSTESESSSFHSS
ENDPOINT_LABEL: koff (s⁻¹)
Your answer should be a plain number; it is taken to be in s⁻¹.

-- ask Hello, please tell me recorded koff for this one: h3G10.2.37 VH / h3G10.A58B VL Fab (Fab, V domains shown, Tested as Fab) VH: EVQLVESGGGLVQPGGSLRLSCAASGFTFSDYYMSWVRQAPGKGLEWVGFIRHKANFYTREYSTSVKGRFTISRDDSKNSLYLQMNSLKTEDTAVYYCARDLPGFAYWGQGTLVTVSS VL: DIVMTQSPDSLAVSLGERATINCKSSQSLFNSHTRKNYLAWYQQKPGQPPKLLIYWASARGSGVPDRFSGSGSGTDFTLTISSLQAEDVAVYYCKQSFNLRTFGGGTKVEIK
-- reply 0.000449

-- ask Hello, please tell me recorded koff for this one: h3G10.1.91 VH / h3G10.A58B VL Fab (Fab, V domains shown, Tested as Fab) VH: EVQLVESGGGLVQPGGSLRLSCAASGFTFSDYYMSWVRQAPGKGLEWVGFIRHKANFETTEYSTSVKGRFTISRDDSKNSLYLQMNSLKTEDTAVYYCARDLPGFAYWGQGTLVTVSS VL: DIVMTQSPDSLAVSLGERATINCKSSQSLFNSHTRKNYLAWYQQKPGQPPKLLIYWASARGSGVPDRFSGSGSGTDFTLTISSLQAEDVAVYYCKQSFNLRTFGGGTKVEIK
-- reply 0.000286

-- ask Hello, please tell me recorded koff for this one: h3G10 VH / h3G10 VL Fab (Fab, V domains shown, Tested as Fab; also called h3G10 Fab) VH: EVQLVESGGGLVQPGGSLRLSCAASGFTFSDYYMSWVRQAPGKGLEWVGFIRHKANGYTTEYSTSVKGRFTISRDDSKNSLYLQMNSLKTEDTAVYYCARDLPGFAYWGQGTLVTVSS VL: DIVMTQSPDSLAVSLGERATINCKSSQSLFNSRTRKNYLAWYQQKPGQPPKLLIYWASARESGVPDRFSGSGSGTDFTLTISSLQAEDVAVYYCKQSFNLRTFGGGTKVEIK
-- reply 0.003

-- ask Hello, please tell me recorded koff for this one: h3G10.A57 VH / h3G10 VL Fab (Fab, V domains shown, Tested as Fab; also called h3G10.A57 VH / h3G10 L) VH: EVQLVESGGGLVQPGGSLRLSCAASGFTFSDYYMSWVRQAPGKGLEWVGFIRHKANFYTTEYSTSVKGRFTISRDDSKNSLYLQMNSLKTEDTAVYYCARDLPGFAYWGQGTLVTVSS VL: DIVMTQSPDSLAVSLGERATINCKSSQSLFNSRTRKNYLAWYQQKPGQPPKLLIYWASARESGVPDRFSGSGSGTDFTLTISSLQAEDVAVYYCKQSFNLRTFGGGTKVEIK
-- reply 0.00143
